Test system: NCI-H460 lung
Experiment: NCI tumour cell line growth inhibition, 48 h
Items are presented alongside their recorded TGI.

The cases that follow already have their TGI on record.
{"columns": ["compound", "reading"],
 "data": [
  ["COc1nc2c(cc1S(=O)(=O)c1ccccc1)CCc1c-2cnn1Cc1ccccc1", "> 100 µM"],
  ["CCc1cccc(CC)c1Nc1nc2c(s1)C(=O)c1ccccc1C2=O", "34.9 µM"],
  ["COc1ccc2nc3ccccc3c(NCCCCCN(CCCl)CCCl)c2c1", "0.192 µM"]
]}

Given the compound O=C(C[C@@]1(O)C(=O)Nc2c(Cl)ccc(Cl)c21)c1ccc(C2CC2)cc1 , write its reported TGI. 11.4 µM

Please look at this compound and report its TGI: C[C@H](C(=O)N[C@@H](Cc1ccc(-c2ccccc2)cc1)C(=O)NC1CC(C)(C)N(C)C(C)(C)C1)c1ccc(-c2ccccc2)c(F)c1 2.43 µM

Provide measured TGI value, entry: C=C(CN(C)C)C(=O)c1ccc(C)cc1C 46.9 µM

====

Test system: SN12C renal
Experiment: NCI tumour cell line growth inhibition, 48 h
reported property: TGI (µM)
Please respond with the number in µM and leave the unit unwritten.

{"columns": ["smiles data", "TGI / µM"],
 "data": [
  ["O=C(Nc1ccc(Cl)cc1F)c1cc(F)ccc1O", 5.64]
]}

Here is another compound to look at.
Provide only the value of recorded TGI for OC(Cc1ccccc1)(Cc1ccccc1)c1ccccc1 32

====

Measured TGI values are reported for all entries that follow.
System: K-562 leukemia
Test: NCI tumour cell line growth inhibition, 48 h

{"columns": ["compound", "TGI"],
 "data": [
  ["O=C(N[C@@H]1C=CCC[C@@H]1c1ccccc1)OCc1ccccc1", "> 100 µM"],
  ["C/C(=N/NC(=S)N(C)CCc1ccccn1)c1cnccn1", "> 100 µM"],
  ["COc1cc(/C=C2\\CCCC3C2=Nc2ccccc2NC3c2cc(OC)c(OC)c(OC)c2)cc(OC)c1OC (stereo unspecified)", "10.3 µM"],
  ["O=C(c1ccccn1)c1nc(-c2ccc(Cl)c(Cl)c2)nc2ccc(Cl)cc12", "> 100 µM"],
  ["O=c1c2[nH]c3ccccc3c2nc2n1CCS2", "> 100 µM"],
  ["CC(C)[C@](O)(C(=O)OCC1=CC[N+]2([O-])CC[C@@H](O)[C@@H]12)[C@H](C)O (stereo partly specified)", "> 10000 µM"]
]}

Indicate its recorded TGI; the compound in question is COC(=O)C1=C([C@H]2COC(C)(C)O2)[C@H]2C[C@@H]1[C@@H]1OC(C)(C)O[C@@H]12 > 100 µM

Fill in TGI for record C=C(C)[C@@H]1CC[C@]2(C(=O)Nc3ccccn3)CC[C@]3(C)[C@H](CC[C@@H]4[C@@]5(C)CCCNC(C)(C)[C@@H]5CC[C@]43C)[C@@H]12 4.78 µM

Quickly give me recorded TGI for CCN=C=NCCCN(C)C > 100 µM

Report TGI for COc1cc(-c2nc(-c3nnc(-c4ccc(F)c(Cl)c4)o3)c3ccccn23)cc(OC)c1OC > 100 µM

Let me know recorded TGI for NC(=O)c1ccc2nc(-c3ccc(C4(N)CCC4)cc3)c(-c3ccccc3)n2n1 , thanks. 36.9 µM

====

System: RXF 393 renal
Assay: NCI tumour cell line growth inhibition, 48 h
Overview of reported log10 TGI across a group of molecules:
Values reflect log10 of reported TGI (µM).

Below: 5 molecules and their reported log10 TGI.
{"columns": ["molecule", "log10 TGI"],
 "data": [
  ["COc1cc(C(C)(C)C)cc(OC)c1C(O)(c1c(OC)cc(C(C)(C)C)cc1OC)c1c(OC)cc(C(C)(C)C)cc1OC", -0.06],
  ["COc1cc[c]([Sb]([Br])([CH]=C(C)C)([CH]=C(C)C)[CH]=C(C)C)cc1", 1.77],
  ["COc1ccc(C2C3=C(COC3=O)OC(C)(C)Oc3cc4c(cc32)OCO4)cc1 (stereo not given)", 1.90],
  ["CC(C)(Cl)C(Br)CCC(CBr)=C(Cl)CCl (mixture of isomers)", 0.70],
  ["COC1/C=C\\OC2(C)Oc3c(C)c(O)c4c(O)c(c(/C=N\\OCCCc5ccccc5)c(O)c4c3C2=O)NC(=O)/C(C)=C\\C=C/C(C)C(O)C(C)C(O)C(C)C(OC(C)=O)C1C (stereo not given)", 0.84]
]}

For CN(C)C(=S)/N=c1\ssc(=S)n1-c1ccccc1 , write its log10 TGI. 1.52

Kindly indicate its recorded log10 TGI. Item: O=C1c2ccccc2C(=O)c2c(NC(=O)C(Cl)CCl)cccc21 (stereo not given) 1.21

====

System: T-47D breast
Experiment: NCI tumour cell line growth inhibition, 48 h
Form field: TGI (one value per entry).
Supply the numeric figure in µM, leaving out any unit text.

{"columns": ["compound", "tested on", "reported property", "reading"],
 "data": [
  ["COc1cc(/C=C/C=C2\\CCC/C(=C\\C=C\\c3ccc(O)c(OC)c3)C2=O)ccc1O", "T-47D breast", "TGI", 36.7],
  ["COc1cccc2c1C(=O)c1c(O)c3c(c(O)c1C2=O)C[C@@](O)(C(=O)CO)C[C@@H]3OC1CC(OC(C)=O)C(OC(C)=O)C(C)O1 (stereo not given in full)", "T-47D breast", "TGI", 1.99],
  ["Cc1cc(O)c(C2=NN(c3ccc(S(N)(=O)=O)cc3)C(c3ccccc3O)C2)cc1Cl (stereo not given)", "T-47D breast", "TGI", 11.3],
  ["[C-]#[O+].[C-]#[O+].[Ir].[O-]c1ccc2ccccc2c1N=Nc1ccccc1", "T-47D breast", "TGI", 33.5]
]}

Now turn to the next compound.
Provide measured TGI value, entry: COc1cccc2c1nc1cccc(OC)c1[n+]2[O-] 9.26

====

Test system: HCT-116 colon
Test: NCI tumour cell line growth inhibition, 48 h; in the data active means GI50 below about 0.43 µM; inactive means the rest
Lab note: assign the record to one of active, inactive

Take a look at these entries with their results.
{"columns": ["compound", "category label"],
 "data": [
  ["N.N.N.N.N.N#N.[Cl-].[Os+7]", "inactive"],
  ["C[n+]1c2cc(N)ccc2cc2ccc(N)cc21 (tested in a mixture with another compound)", "active"],
  ["O=C(C[C@@]1(O)C(=O)Nc2c(Cl)ccc(Cl)c21)c1ccc(C2CC2)cc1", "inactive"],
  ["COc1ccc(S(=O)(=O)NC2=NCCN2C(=S)SN2CCn3c2nsc3=S)cc1OC", "inactive"],
  ["CCCCCCCCCCCCOC1C(CNCC2OC3OC(C)(C)OC3C2NC(=O)Nc2ccc(C(F)(F)F)cc2)OC2OC(C)(C)OC21 (stereo not given)", "inactive"]
]}

So what was the verdict on O=C(Nc1ccc(Cl)cc1F)c1cc(F)ccc1O in this test? inactive

Short answer needed: outcome of this test for CC(C)(C)OC(=O)N1CC(Cn2cc(C(F)(F)F)c3c(Cl)ncnc32)C1 ? inactive

Please share the test call associated with O=C1OCC2=C1C(c1cccc(C(F)(F)F)c1)c1cc3c(cc1N2CCO)OCO3 (stereo not given) . active

Call for entry OC(COc1cccc2ccccc12)CN1CCN(c2ccc(Cl)cc2)CC1 (stereo not given) : inactive

Just curious, what result did COc1ccc2[nH]c(-c3ccccc3)c(C=C(C#N)C#N)c2c1 get here? inactive

====

Each record here notes measured TGI.
Tested on: HL-60(TB) leukemia
Experiment: NCI tumour cell line growth inhibition, 48 h

State, in one line, measured TGI of COc1ccc2nc3ccccc3c(NCCCCCN(CCCl)CCCl)c2c1 0.0881 µM

Quote TGI reported for CN/C=C(/c1ccc(OC)cc1)C(O)c1ccc(OC)c(OC)c1 (stereo unspecified) please. > 100 µM

Read off the recorded TGI for COc1cc(C(C#N)NNC(=O)Cc2ccccc2)cc(OC)c1OC (stereo unspecified) > 100 µM

====

Tested on: HCC-2998 colon
Experiment: NCI tumour cell line growth inhibition, 48 h
Think of 30 µM as a floor: if TGI stands on it or above, it is YES; beneath it, NO.

{"columns": ["molecule", "category label"],
 "data": [
  ["CCc1cccc(CC)c1Nc1nc2c(s1)C(=O)c1ccccc1C2=O", "YES"]
]}

Answer whether TGI of N#Cc1nc(Sc2cnsn2)c(Sc2cnsn2)nc1C#N is greater than or equal to 30 µM. YES

Is the recorded value of TGI equal to or greater than 30 µM for this molecule? C[n+]1c2cc(N)ccc2cc2ccc(N)cc21 (tested in a mixture with another compound) NO

====

Tested on: SK-MEL-5 melanoma
Assay: NCI tumour cell line growth inhibition, 48 h
TGI for assorted molecules
I only need the number, in µM, no unit after it.

// solved cases for TGI follow
{"columns": ["molecule", "TGI (µM)"],
 "data": [
  ["C=CC(=O)NCCOc1cccc(Nc2cc(NCCCNC(=O)C3CCC3)c(Br)cn2)c1", 5.24],
  ["O=C(Nc1ccc(Cl)cc1F)c1cc(F)ccc1O", 0.847],
  ["FC(F)(F)c1ccc2c(c1)nc(Cc1ccc(Cl)c(Cl)c1)n2CC1CCCN2CCCCC12 (stereo unspecified)", 30.3],
  ["COc1cc[c]([Sb]([Br])([CH]=C(C)C)([CH]=C(C)C)[CH]=C(C)C)cc1", 9.92],
  ["COc1ccc2c(O)c(/C=C3\\N=Nc4ncccc43)oc2c1C[C@H]1CCNC[C@H]1F", 10.6],
  ["CC(C)(C)CC(C)(C)N(CSc1ccc(Cl)cc1)CSc1ccc(Cl)cc1", 2.61],
  ["CCOC(=O)/C(=C\\c1ccnc2ccccc12)P(=O)(OCC)OCC", 10.7],
  ["COc1cc(CNc2nc3cc(N)cc(N)c3nc2-c2ccccc2)cc(OC)c1OC", 7.79]
]}

Entry COc1cc(C(C)(C)C)cc(OC)c1C(O)(c1c(OC)cc(C(C)(C)C)cc1OC)c1c(OC)cc(C(C)(C)C)cc1OC needs its TGI filled in; supply it. 0.552

Give TGI for the following molecule: COc1cc(/C=C2\CCCC3C2=Nc2ccccc2NC3c2cc(OC)c(OC)c(OC)c2)cc(OC)c1OC (stereo unspecified) 5.72

State, in one line, measured TGI of OC(Cc1ccccc1)(Cc1ccccc1)c1ccccc1 32.5

State its TGI: COc1cc(-c2cc(-c3nc4cc(Cl)c(Cl)cc4[nH]3)[nH]n2)cc(OC)c1OC 3.24

For the molecule COc1cc(/C=C/C=C2\CCC/C(=C\C=C\c3ccc(O)c(OC)c3)C2=O)ccc1O , report TGI. 27.2

Specify reported TGI for the molecule shown: CN1C(=O)N(C)C2C1NN=c1s/c(=C\c3c[nH]c4ccccc34)c(=O)n12 (stereo unspecified) 0.184

Hello, please tell me recorded TGI for this one: CCOC(=O)/C(=C/c1ccccc1)C(=O)c1ccccc1 9.35

For the molecule COc1ccc2[nH]c3c([N+](=O)[O-])ccc(Cl)c3c(=O)c2c1 , give its reported TGI. 55.2

Kindly indicate its recorded TGI. Item: NC(=O)c1ccc2nc(-c3ccc(C4(N)CCC4)cc3)c(-c3ccccc3)n2n1 23.3

Quickly give me recorded TGI for C[n+]1c2cc(N)ccc2cc2ccc(N)cc21 (tested in a mixture with another compound) 2.25
